# Tested on: PKC
# assay summary: PKC activity inhibition
# Format: biochemical
pIC50: −log10 of the molar value.
experimental endpoint: pIC50

> print(dat)
                                   compound   val
1  O=S(=O)(NCCNCC=Cc1ccc(Br)cc1)c1cccc2cnccc12 [H-89]  4.51
